- target or system: hCaSR (Calcium sensing receptor) in stably transfected HEK293 cells (Homo sapiens)
- Sequence (P41180 20-1078): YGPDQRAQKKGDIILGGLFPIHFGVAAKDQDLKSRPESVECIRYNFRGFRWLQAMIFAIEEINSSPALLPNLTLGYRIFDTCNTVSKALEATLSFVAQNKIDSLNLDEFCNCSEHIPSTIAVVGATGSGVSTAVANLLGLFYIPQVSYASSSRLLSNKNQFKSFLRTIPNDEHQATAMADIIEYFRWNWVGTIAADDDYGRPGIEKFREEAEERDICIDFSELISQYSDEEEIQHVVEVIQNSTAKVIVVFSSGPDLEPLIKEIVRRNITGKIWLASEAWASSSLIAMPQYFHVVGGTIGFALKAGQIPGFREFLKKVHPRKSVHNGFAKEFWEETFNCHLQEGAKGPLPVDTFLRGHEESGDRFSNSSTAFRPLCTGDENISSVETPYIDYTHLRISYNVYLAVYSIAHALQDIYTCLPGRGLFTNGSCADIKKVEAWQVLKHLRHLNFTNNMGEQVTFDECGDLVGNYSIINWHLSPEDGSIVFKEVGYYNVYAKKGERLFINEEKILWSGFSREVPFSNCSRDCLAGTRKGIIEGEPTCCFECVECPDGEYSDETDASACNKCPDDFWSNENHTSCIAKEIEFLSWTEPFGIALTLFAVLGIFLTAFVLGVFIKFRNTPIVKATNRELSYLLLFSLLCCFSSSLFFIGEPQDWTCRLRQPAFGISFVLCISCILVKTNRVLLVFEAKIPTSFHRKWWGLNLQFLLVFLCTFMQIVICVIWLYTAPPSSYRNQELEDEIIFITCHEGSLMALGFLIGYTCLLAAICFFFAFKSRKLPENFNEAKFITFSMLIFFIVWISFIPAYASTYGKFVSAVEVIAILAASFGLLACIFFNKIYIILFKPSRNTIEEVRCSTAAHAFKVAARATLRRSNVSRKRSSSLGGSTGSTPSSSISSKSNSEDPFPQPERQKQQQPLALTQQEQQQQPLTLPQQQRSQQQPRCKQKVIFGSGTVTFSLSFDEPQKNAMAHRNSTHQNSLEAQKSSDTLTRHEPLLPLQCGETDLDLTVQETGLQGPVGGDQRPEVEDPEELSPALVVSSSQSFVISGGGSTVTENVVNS
- protocol notes: In-vitro assay of calcimimetics through modulation of calcium sensing receptor (CaSR): increase in intracellular calcium, FLIPR
- particulars: HEK293 cells expressing hCaSR; intracellular calcium (Fluo4NW, FLIPR); 0.3 mM CaCl2; 8-point assay; read-out: EC50 in range
Where a name gives a salt, the structure may show the parent alone.
quantity name: EC50

- compound: "COc1cccc([C@@H](C)NCC2COCCN2c2ccccc2)c1 (single isomer, unassigned) [11a]"
  target or system: "hCaSR (Calcium sensing receptor) in stably transfected HEK293 cells (Homo sapiens)"
  test result: "< 20 nM"
- compound: "C[C@@H](NCC1CN(c2ccc3c(c2)OC(F)(F)O3)C(=O)CO1)c1cccc2ccccc12 (stereo partly shown) [compound 59, hydrochloride]"
  target or system: "hCaSR (Calcium sensing receptor) in stably transfected HEK293 cells (Homo sapiens)"
  test result: "20 to 50 nM"
- compound: "COc1cc([C@@H](C)NCC2CN(c3ccc(F)c(F)c3)C(=O)CO2)ccc1F (single isomer, unassigned) [Example 152b, hydrochloride]"
  target or system: "hCaSR (Calcium sensing receptor) in stably transfected HEK293 cells (Homo sapiens)"
  test result: "50 to 200 nM"
- compound: "COc1cccc([C@@H](C)NCC2COCCN2Cc2ccccc2)c1 (single isomer, unassigned) [Example-37b]"
  target or system: "hCaSR (Calcium sensing receptor) in stably transfected HEK293 cells (Homo sapiens)"
  test result: "50 to 200 nM"

q: Return value of EC50 for input C[C@@H](NCC1CN(c2ccc(C(F)(F)F)cc2)CCO1)c1cccc2ccccc12 (single isomer, unassigned) [33a] , no commentary.
a: < 20 nM

q: Return value of EC50 for input COc1cccc([C@@H](C)NCC2COCCN2c2cccc(OC)c2)c1 (single isomer, unassigned) , no commentary.
a: 20 to 50 nM

q: Return value of EC50 for input C[C@@H](NCC1CN(c2cccc(F)c2F)C(=O)CO1)c1cccc2ccccc12 (stereo partly shown) [compound 54, hydrochloride] , no commentary.
a: < 20 nM

src = patent US9382216B2
